Recorded protein stability index for the following variants
B1: ESRRA (parent)
chain: LGVAQRSLPLQDELAFAEDLVLDE

- Variants of: B1
- assay-text: protein stability index of a GFP-peptide fusion (GPS, HEK-293T) (PSI 1-6); higher = more stable;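 further: lentivirally expressed fusions sorted by FACS into six bins by GFP to DsRed ratio, PSI derived from sequencing read proportions per bin multiplied by bin number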
- setup-conditions: c terminus: a fixed tail appended
recorded-metric: protein stability index

INSERT INTO results (variant_annotation, numeric_value) VALUES
  ('R6V', 3.09),
  ('S7V', 2.94),
  ('A17I', 3.96),
  ('E24K', 4.02),
  ('L22F', 3.95),
  ('E24D', 4.07);
